# TARGET_OR_SYSTEM: HDAC8 (Homo sapiens)
# Sequence (Q9BY41 whole entry): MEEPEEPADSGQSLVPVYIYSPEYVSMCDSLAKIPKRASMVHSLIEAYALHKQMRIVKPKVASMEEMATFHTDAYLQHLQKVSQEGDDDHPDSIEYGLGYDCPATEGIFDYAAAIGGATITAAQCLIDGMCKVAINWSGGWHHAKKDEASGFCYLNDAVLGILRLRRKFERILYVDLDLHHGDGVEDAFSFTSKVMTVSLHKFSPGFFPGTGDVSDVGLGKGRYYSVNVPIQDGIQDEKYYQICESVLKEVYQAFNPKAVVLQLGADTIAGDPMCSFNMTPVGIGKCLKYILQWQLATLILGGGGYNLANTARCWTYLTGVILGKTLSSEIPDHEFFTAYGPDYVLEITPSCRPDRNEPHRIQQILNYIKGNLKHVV
Non-standard residues stand in square brackets, D forms with d. Residues, ends and D or L forms follow the SMILES beside them. *: point of attachment. Asu = N[C@@H](CCCCCC(=O)O)C(=O)O; NHOH = ON*

COMPOUND	UNIT_TEXT	Ki
CC(=O)N[C@@H](C)C(=O)N[C@H](C(=O)NCC(=O)NCC(=O)N[C@H](C(=O)N[C@@H](CCCCCC(=O)NO)C(=O)N[C@@H](CCCCN)C(=O)N1CCC[C@H]1C(=O)N[C@@H](Cc1c[nH]cn1)C(=O)N[C@@H](CCCNC(=N)N)C(=O)N[C@@H](Cc1ccc(O)cc1)C(=O)N[C@@H](CCCNC(=N)N)C(=O)N1CCC[C@H]1C(=O)NCC(=O)N[C@H](C(=O)N[C@H](C(=O)N[C@@H](Cc1c[nH]c2ccccc12)C(N)=O)C(C)C)[C@@H](C)O)C(C)C)[C@@H](C)O [15a] (Ac-ATGGV[Asu](NHOH)KPHRYRPGTVW-NH2)	nM	1680
